The reported measurements were obtained from the supplement of paper PMC10567573.

B1: C10orf62 (parent)
chain: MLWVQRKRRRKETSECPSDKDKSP

- Variants of: B1
- PROTOCOL_DESCRIPTION: protein stability index of a GFP-peptide fusion (GPS, HEK-293T) (PSI 1-6); higher = more stable;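 further: lentivirally expressed fusions sorted by FACS into six bins by GFP to DsRed ratio, PSI derived from sequencing read proportions per bin multiplied by bin number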
- EXPERIMENTAL_CONTEXT: c terminus: a fixed tail appended
RECORDED_METRIC: protein stability index

- ORDERED_RESIDUES: "MLWVQRKRRRKFTSECPSDKDKSP [E12F]"
  OBSERVED: 2.5
- ORDERED_RESIDUES: "MLWVQRKRRDKETSECPSDKDKSP [R10D]"
  OBSERVED: 4.11
- ORDERED_RESIDUES: "MLWVQRKRRRKETSECPSDMDKSP [K20M]"
  OBSERVED: 3.38
- ORDERED_RESIDUES: "MLWVHRKRRRKETSECPSDKDKSP [Q5H]"
  OBSERVED: 2.97
- ORDERED_RESIDUES: "MLWVQRKRRRKETSECPSDKDKSA [P24A]"
  OBSERVED: 3.72
- ORDERED_RESIDUES: "GLWVQRKRRRKETSECPSDKDKSP [M1G]"
  OBSERVED: 4
- ORDERED_RESIDUES: "MLWVQRKRRRKETSECPSDKDKWP [S23W]"
  OBSERVED: 1.92
- ORDERED_RESIDUES: "MLWVQRKRRRNETSECPSDKDKSP [K11N]"
  OBSERVED: 3.11
- ORDERED_RESIDUES: "MLHVQRKRRRKETSECPSDKDKSP [W3H]"
  OBSERVED: 4.31
- ORDERED_RESIDUES: "MLWVQRKRRRKETFECPSDKDKSP [S14F]"
  OBSERVED: 3.12
- ORDERED_RESIDUES: "MNWVQRKRRRKETSECPSDKDKSP [L2N]"
  OBSERVED: 3.93
- ORDERED_RESIDUES: "MLWVQRKRRRKETSECPSPKDKSP [D19P]"
  OBSERVED: 2.61
- ORDERED_RESIDUES: "MCWVQRKRRRKETSECPSDKDKSP [L2C]"
  OBSERVED: 2.87
- ORDERED_RESIDUES: "MLWVQRKRRRKETSECPSDKDCSP [K22C]"
  OBSERVED: 2.32
- ORDERED_RESIDUES: "MLWVQRKRRRKETSECPSNKDKSP [D19N]"
  OBSERVED: 2.92
- ORDERED_RESIDUES: "MLWVQRKIRRKETSECPSDKDKSP [R8I]"
  OBSERVED: 3.36
- ORDERED_RESIDUES: "MLWVQRKRRRKEISECPSDKDKSP [T13I]"
  OBSERVED: 2.52
- ORDERED_RESIDUES: "MLWVQRKRRRKHTSECPSDKDKSP [E12H]"
  OBSERVED: 3.16
- ORDERED_RESIDUES: "MLWVQRKRRRKPTSECPSDKDKSP [E12P]"
  OBSERVED: 3.67
- ORDERED_RESIDUES: "MLWVQRKRRRKETSSCPSDKDKSP [E15S]"
  OBSERVED: 2.96
- ORDERED_RESIDUES: "MLWVQSKRRRKETSECPSDKDKSP [R6S]"
  OBSERVED: 3.42
- ORDERED_RESIDUES: "MLWVQRKRRRKETSECPSAKDKSP [D19A]"
  OBSERVED: 2.77
